# System: Plasmodium berghei
# test-summary: animal or person
# Assay type: in vivo, Plasmodium berghei (strain ANKA) in mice
# test-settings: Plasmodium berghei, sc; single subcutaneous dose of 10 mg/kg, mice, blood smears 48 h after treatment; read-out: Growth inhibition in % after sc administration (GI%, percentage reduction of the parasitemia)
# inhibition in vivo at 10 mg/kg values compiled below
reported-endpoint: inhibition in vivo at 10 mg/kg (%)

In [3]: df
Out[3]:
                                   compound        study_target  data_value
0  COc1ccc(CN[C@H]2CC[C@@H](Nc3ccnc4cc(Cl)ccc34)CC2)c(OC)c1.Cl.Cl [Example 81, dihydrochloride]  Plasmodium berghei         100
1  Cl.Cl.Clc1cccc(CCN[C@H]2CC[C@H](Nc3ccnc4cc(Cl)ccc34)CC2)c1 [Example 96, dihydrochloride]  Plasmodium berghei          98
2  COc1ccc(CN[C@H]2CC[C@H](Nc3ccnc4cc(Cl)ccc34)CC2)cc1.Cl.Cl [Example 100, dihydrochloride]  Plasmodium berghei          99
3  CC(C)(CNc1ccnc2cc(Cl)ccc12)NCc1cc(C(F)(F)F)cc(C(F)(F)F)c1  Plasmodium berghei        99.3

----------
# Test system: Plasmodium falciparum strain NF54
# test-summary: Growth inhibition of Plasmodium falciparum NF54 (chloroquine-sensitive) in vitro, [G-3H]-hypoxanthin incorporation
# Type: cell-based
# test-settings: chloroquine-sensitive strain NF54, 72 h, read-out: IC50 for P. falciparum NF54
Counter-ions that a name gives are not always drawn.
reported-endpoint: IC50

>>> df
                                    compound                       study_target  data_value
 0  CC(C)(CNc1ccnc2cc(Cl)ccc12)NCc1ccc2c(c1)OCO2.Cl.Cl  Plasmodium falciparum strain NF54   8.7 ng/mL
 1  CC(=O)O.CC(=O)O.CC(C)(CNc1ccnc2cc(Cl)ccc12)NCc1ccccc1O  Plasmodium falciparum strain NF54     4 ng/mL
 2  CC(C)(CNc1ccnc2cc(Cl)ccc12)NCc1ccco1.Cl.Cl  Plasmodium falciparum strain NF54  19.3 ng/mL
 3  C[C@@H](CNCc1ccc(N(C)C)cc1)Nc1ccnc2cc(Cl)ccc12.Cl.Cl.Cl  Plasmodium falciparum strain NF54   7.1 ng/mL
 4  Cl.Cl.Clc1ccc(CN[C@H]2CC[C@H](Nc3ccnc4cc(Cl)ccc34)CC2)c(Cl)c1  Plasmodium falciparum strain NF54   1.8 ng/mL
 5  Cl.Cl.Fc1cccc(F)c1CN[C@H]1CC[C@H](Nc2ccnc3cc(Cl)ccc23)CC1  Plasmodium falciparum strain NF54   2.9 ng/mL
 6  Cl.Cl.Clc1ccc2c(N[C@H]3CC[C@H](NCCc4c(Cl)cccc4Cl)CC3)ccnc2c1  Plasmodium falciparum strain NF54   2.7 ng/mL
 7  Cl.Cl.Clc1ccc(CN[C@H]2CC[C@@H](Nc3ccnc4cc(Cl)ccc34)CC2)c(Cl)c1  Plasmodium falciparum strain NF54    15 ng/mL
 8  CC(C)(CNc1ccnc2cc(Cl)ccc12)NCc1cccc(O)c1.Cl.Cl  Plasmodium falciparum strain NF54   7.6 ng/mL
 9  CC(C)(CNc1ccnc2cc(Cl)ccc12)NCc1ccc(C(F)(F)F)cc1C(F)(F)F.Cl.Cl  Plasmodium falciparum strain NF54   166 ng/mL
10  Cl.Cl.Clc1ccc2c(N[C@H]3CC[C@@H](NCc4ccc(-c5ccccc5)cc4)CC3)ccnc2c1  Plasmodium falciparum strain NF54   6.2 ng/mL
11  COc1cc(CN[C@H]2CC[C@H](Nc3ccnc4cc(Cl)ccc34)CC2)cc(OC)c1OC.Cl.Cl  Plasmodium falciparum strain NF54   4.3 ng/mL
12  CC(C)(CNc1ccnc2cc(Cl)ccc12)NCc1cccc(Cl)c1  Plasmodium falciparum strain NF54   9.1 ng/mL
13  CC(C)(CNc1ccnc2cc(Cl)ccc12)NCc1ccc([N+](=O)[O-])cc1 [Example 47, dihydrochloride]  Plasmodium falciparum strain NF54   9.4 ng/mL
14  COc1cccc(OC)c1CN[C@H]1CC[C@@H](Nc2ccnc3cc(Cl)ccc23)CC1.Cl.Cl  Plasmodium falciparum strain NF54     2 ng/mL
15  CN(C)c1ccc(CN[C@H]2CCCC[C@@H]2Nc2ccnc3cc(Cl)ccc23)cc1.Cl.Cl  Plasmodium falciparum strain NF54   5.6 ng/mL
16  CC(C)(CNc1ccnc2cc(Cl)ccc12)NCc1ccc(C#N)cc1.Cl.Cl  Plasmodium falciparum strain NF54   8.2 ng/mL
17  Cl.Cl.Clc1ccc(CN[C@H]2CCCC[C@@H]2Nc2ccnc3cc(Cl)ccc23)cc1  Plasmodium falciparum strain NF54  12.7 ng/mL
18  Cl.Cl.O=[N+]([O-])c1ccc(CN[C@H]2CC[C@@H](Nc3ccnc4cc(Cl)ccc34)CC2)cc1  Plasmodium falciparum strain NF54   6.9 ng/mL
19  CC(C)(CNc1ccnc2cc(Cl)ccc12)NCc1ccc(Cl)cc1Cl  Plasmodium falciparum strain NF54  49.3 ng/mL
20  CC(C)(CNc1ccnc2cc(Cl)ccc12)NCc1ccnc2ccccc12.Cl.Cl.Cl  Plasmodium falciparum strain NF54  29.3 ng/mL
21  Cl.Cl.Clc1ccc(CN[C@H]2CC[C@@H](Nc3ccnc4cc(Cl)ccc34)CC2)cc1  Plasmodium falciparum strain NF54  11.6 ng/mL
22  Cl.Cl.Clc1ccc2c(N[C@H]3CC[C@H](NCCc4ccccc4)CC3)ccnc2c1  Plasmodium falciparum strain NF54   2.2 ng/mL
23  Cl.Cl.Clc1ccc2c(N[C@H]3CC[C@@H](NCc4c(Cl)cccc4Cl)CC3)ccnc2c1  Plasmodium falciparum strain NF54   4.3 ng/mL
24  CC(C)(CNc1ccnc2cc(Cl)ccc12)NCc1c(Cl)cccc1Cl  Plasmodium falciparum strain NF54  84.7 ng/mL
25  CC(C)(CNc1ccnc2cc(Cl)ccc12)NCc1ccc(Oc2ccccc2)cc1.Cl.Cl  Plasmodium falciparum strain NF54    16 ng/mL

----------
# Test system: Plasmodium falciparum strain NF54
# test-summary: Growth inhibition of Plasmodium falciparum NF54 (chloroquine-sensitive) in vitro, [G-3H]-hypoxanthin incorporation
# Assay type: cell-based
# test-settings: chloroquine-sensitive strain NF54, 72 h, read-out: IC50 for P. falciparum NF54
Where a name gives a salt, the structure may show the parent alone.
Classes based on IC50: bin 1 = under 6 ng/mL, bin 2 = from 6 ng/mL up to 10 ng/mL, bin 3 = 10 ng/mL and over

>>> print(df.to_string())
                                    compound                       study_target  class_name
 0  CSc1ccc(CN[C@H]2CC[C@@H](Nc3ccnc4cc(Cl)ccc34)CC2)cc1.Cl.Cl  Plasmodium falciparum strain NF54       bin 2
 1  CC(C)(CNc1ccnc2cc(Cl)ccc12)NCc1cccc2ccccc12.Cl.Cl  Plasmodium falciparum strain NF54       bin 3
 2  COc1cc(CCN[C@H]2CC[C@H](Nc3ccnc4cc(Cl)ccc34)CC2)cc(OC)c1.Cl.Cl  Plasmodium falciparum strain NF54       bin 1
 3  CC(C)c1ccc(CNC(C)(C)CNc2ccnc3cc(Cl)ccc23)cc1.Cl.Cl  Plasmodium falciparum strain NF54       bin 3
 4  Cl.Cl.Clc1cccc(CN[C@H]2CC[C@@H](Nc3ccnc4cc(Cl)ccc34)CC2)c1  Plasmodium falciparum strain NF54       bin 2
 5  C[C@H](CNc1ccnc2cc(Cl)ccc12)NCc1ccc(N(C)C)cc1.Cl.Cl.Cl  Plasmodium falciparum strain NF54       bin 3
 6  COc1ccc(CNC(C)(C)CNc2ccnc3cc(Cl)ccc23)cc1.Cl.Cl  Plasmodium falciparum strain NF54       bin 2
 7  Cl.Cl.Clc1ccc2c(N[C@H]3CC[C@@H](NCc4c(Cl)ccc(Cl)c4Cl)CC3)ccnc2c1  Plasmodium falciparum strain NF54       bin 2
 8  CN(C)c1ccc(CNC(C)(C)CNc2ccnc3cc(Cl)ccc23)cc1.Cl.Cl  Plasmodium falciparum strain NF54       bin 3
 9  CC(C)(CNc1ccnc2cc(Cl)ccc12)NCc1ccc(-c2ccccc2)cc1 [Example 51, dihydrochloride]  Plasmodium falciparum strain NF54       bin 3
10  CN(C)c1ccc(CN[C@H]2CC[C@H](Nc3ccnc4cc(Cl)ccc34)CC2)cc1.Cl.Cl.Cl  Plasmodium falciparum strain NF54       bin 1
11  CC(C)(CNc1ccnc2cc(Cl)ccc12)NCc1ccc(C(F)(F)F)cc1  Plasmodium falciparum strain NF54       bin 3
12  CC(C)(CNc1ccnc2cc(Cl)ccc12)NCc1cccc(C#N)c1.Cl.Cl  Plasmodium falciparum strain NF54       bin 3
13  CCN(CC)c1ccc(CN[C@H]2CC[C@@H](Nc3ccnc4cc(Cl)ccc34)CC2)cc1.Cl.Cl.Cl  Plasmodium falciparum strain NF54       bin 1
14  CC(C)(CNc1ccnc2cc(Cl)ccc12)NCc1ccccc1 [Example 24, dihydrochloride]  Plasmodium falciparum strain NF54       bin 2
15  CC(C)(CNc1ccnc2cc(Cl)ccc12)NCc1ccccn1.Cl.Cl.Cl  Plasmodium falciparum strain NF54       bin 3
16  COc1ccc(O)c(CNC(C)(C)CNc2ccnc3cc(Cl)ccc23)c1.Cl.Cl  Plasmodium falciparum strain NF54       bin 2
17  Cl.Cl.N#Cc1ccc(CN[C@H]2CCCC[C@@H]2Nc2ccnc3cc(Cl)ccc23)cc1  Plasmodium falciparum strain NF54       bin 2
18  Cl.Cl.FC(F)(F)c1ccc(CN[C@H]2CCCC[C@@H]2Nc2ccnc3cc(Cl)ccc23)c(C(F)(F)F)c1  Plasmodium falciparum strain NF54       bin 3
19  COc1cc(CNC(C)(C)CNc2ccnc3cc(Cl)ccc23)cc(OC)c1OC.Cl.Cl  Plasmodium falciparum strain NF54       bin 3
20  Cl.Cl.Clc1ccc2c(N[C@H]3CC[C@H](NCCc4ccc5c(c4)OCO5)CC3)ccnc2c1  Plasmodium falciparum strain NF54       bin 1
21  COc1cc(O)c(CN[C@H]2CC[C@@H](Nc3ccnc4cc(Cl)ccc34)CC2)c(OC)c1.Cl.Cl  Plasmodium falciparum strain NF54       bin 1
22  COc1ccc(CCN[C@H]2CC[C@H](Nc3ccnc4cc(Cl)ccc34)CC2)cc1OC.Cl.Cl  Plasmodium falciparum strain NF54       bin 2
23  CSc1ccc(CNC(C)(C)CNc2ccnc3cc(Cl)ccc23)cc1.Cl.Cl  Plasmodium falciparum strain NF54       bin 3
24  Cl.Cl.N#Cc1ccc(CN[C@H]2CC[C@@H](Nc3ccnc4cc(Cl)ccc34)CC2)cc1  Plasmodium falciparum strain NF54       bin 1
25  COc1ccc(CNC(C)(C)CNc2ccnc3cc(Cl)ccc23)c(O)c1.Cl.Cl  Plasmodium falciparum strain NF54       bin 2
26  COc1cc(CNC(C)(C)CNc2ccnc3cc(Cl)ccc23)cc(OC)c1.Cl.Cl  Plasmodium falciparum strain NF54       bin 1
27  COc1cccc(CNC(C)(C)CNc2ccnc3cc(Cl)ccc23)c1O.Cl.Cl  Plasmodium falciparum strain NF54       bin 2
28  COc1cc(CN[C@H]2CC[C@@H](Nc3ccnc4cc(Cl)ccc34)CC2)cc(OC)c1.Cl.Cl  Plasmodium falciparum strain NF54       bin 1
